# credit: patent US20100216690A1

Target: human insulin receptor (IR) (Homo sapiens)
Sequence (P06213 other isoform, or with tags, fused parts or gaps limits assumed, form in doubt): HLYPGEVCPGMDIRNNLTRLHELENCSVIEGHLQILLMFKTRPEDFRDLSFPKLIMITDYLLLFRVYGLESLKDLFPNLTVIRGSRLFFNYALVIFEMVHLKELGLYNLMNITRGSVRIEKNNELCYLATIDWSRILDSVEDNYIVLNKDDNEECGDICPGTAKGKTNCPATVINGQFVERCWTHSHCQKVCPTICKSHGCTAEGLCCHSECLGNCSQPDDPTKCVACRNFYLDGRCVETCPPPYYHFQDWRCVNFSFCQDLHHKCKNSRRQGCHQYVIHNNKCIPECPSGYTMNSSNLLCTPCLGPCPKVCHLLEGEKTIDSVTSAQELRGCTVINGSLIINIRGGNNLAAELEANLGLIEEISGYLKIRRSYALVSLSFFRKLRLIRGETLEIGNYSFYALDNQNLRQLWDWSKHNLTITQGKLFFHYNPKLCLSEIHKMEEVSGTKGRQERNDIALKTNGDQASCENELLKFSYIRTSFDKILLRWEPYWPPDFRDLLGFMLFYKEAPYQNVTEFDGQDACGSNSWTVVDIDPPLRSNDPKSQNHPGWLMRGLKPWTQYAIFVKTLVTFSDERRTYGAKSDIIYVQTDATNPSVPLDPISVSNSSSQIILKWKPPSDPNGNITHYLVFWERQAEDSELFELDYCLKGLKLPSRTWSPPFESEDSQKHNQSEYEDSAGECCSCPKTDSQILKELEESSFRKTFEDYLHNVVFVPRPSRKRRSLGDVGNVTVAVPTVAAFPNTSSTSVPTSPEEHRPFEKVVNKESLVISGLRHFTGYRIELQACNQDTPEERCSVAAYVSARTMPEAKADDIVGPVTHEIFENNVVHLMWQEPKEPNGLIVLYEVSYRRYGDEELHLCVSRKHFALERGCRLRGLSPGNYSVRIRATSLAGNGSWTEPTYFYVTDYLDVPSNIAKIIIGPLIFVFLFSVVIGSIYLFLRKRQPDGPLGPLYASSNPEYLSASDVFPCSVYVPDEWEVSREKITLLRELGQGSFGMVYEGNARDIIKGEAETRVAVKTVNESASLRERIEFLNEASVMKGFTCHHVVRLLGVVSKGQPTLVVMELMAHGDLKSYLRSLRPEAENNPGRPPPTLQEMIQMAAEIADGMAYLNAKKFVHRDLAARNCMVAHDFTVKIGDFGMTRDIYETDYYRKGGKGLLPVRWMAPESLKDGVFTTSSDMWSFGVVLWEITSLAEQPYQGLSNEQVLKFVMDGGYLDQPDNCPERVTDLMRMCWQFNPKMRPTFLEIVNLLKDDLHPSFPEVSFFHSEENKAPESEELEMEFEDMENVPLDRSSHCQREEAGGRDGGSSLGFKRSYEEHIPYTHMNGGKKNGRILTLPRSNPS
Test: displacement of 125I-human insulin from human insulin receptor; affinity relative to human insulin
Outcome label depends on IR binding in percent of human insulin relative to 5%: at/above gives True, below gives False.

SUBSTANCE	CLASS_ASSIGNMENT
B(1-29)-B29A-VGLSSGQ-A(1-22)-A18Q-A22K(N^ε-3-(mPEG2000-yl)propionyl) Human Insulin (from UniProt P01308 25-53; P01308 90-110) (ligand)	True
B(1-29)-B29A-VGLSSGQ-A(1-21)-A8K(N^ε-3-(mPEG2000-yl)propionyl)-A18Q Human Insulin (from UniProt P01308 25-53; P01308 90-110) (ligand)	False

Determine whether measured IR binding in percent of human insulin meets or exceeds 5% for B(1-29)-B3K(N^ε-3-(mPEG2000-yl)propionyl)-B29A-VGLSSGQ-A(1-21)-A18Q Human Insulin (from UniProt P01308 25-53; P01308 90-110) (ligand)
False

Determine whether measured IR binding in percent of human insulin meets or exceeds 5% for B(1-29)-B29K(N^ε-3-(mPEG2000-yl-propionyl)-VGLSSGQ-A(1-21)-A18Q Human Insulin (from UniProt P01308 25-53; P01308 90-110) (ligand)
True

Determine whether measured IR binding in percent of human insulin meets or exceeds 5% for B(1-29)-B1(N^α-3-(mPEG2000-yl)propionyl)-B29A-VGLSSGQ-A(1-21)-A18Q Human Insulin (from UniProt P01308 25-53; P01308 90-110) (ligand)
True

Determine whether measured IR binding in percent of human insulin meets or exceeds 5% for B(1-29)-B22K(N^ε-3-(mPEG2000-yl)propionyl)-B29A-A18Q-VGLSSGQ-A(1-21) Human Insulin (from UniProt P01308 25-53; P01308 90-110) (ligand)
True
